Biological target: human GLP-1 receptor (human, UniProt P43220 24-463)
Test: cell-based or functional assay
Starred links: 1 amine or outer side, 2 acyl side, 3 side chain; linkers in the order of their positions; H or OH if unused. Non-standard residues stand in square brackets, D forms with d. Groups on a side chain read outwards from the residue. No end group written: not given here. *: point of attachment. C20 diacid = O=C(O)CCCCCCCCCCCCCCCCCCC(=O)*; γGlu = O=C(O)[C@H](CCC(=O)[*:2])N[*:1]; εLys = N[C@@H](CCCCN[*:1])C(=O)[*:2]; Aib = CC(C)(N)C(=O)O
Quick list: EC50 CreLuc hGLP1R 100% hP per entry.
measured endpoint: EC50 CreLuc hGLP1R 100% hP (nM)

1) Y[Aib]EGTFTSDYSI[Aib]LEKQAQ[Aib]AFVQWLIK([εLys-γGlu-γGlu-γGlu-γGlu-γGlu-C20 diacid])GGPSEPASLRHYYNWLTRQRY-NH2 [Compound 169]	7.3
2) YXEGTFTSDYSIXLEKQAQXEFVQWLIKGGPSEGASLRHYYNWLTRQRY (Aib at 2, 13, 20; K28 side chain: C18DA-gGlu-gGlu-gGlu-gGlu-gGlu; C-terminal NH2) [Compound 141]	7.93
3) Y[Aib]EGTFTSDYSI[Aib]LEKQAQ[Aib]AFVQWLIK([εLys-γGlu-γGlu-γGlu-Glu-γGlu-γGlu-γGlu-C20 diacid])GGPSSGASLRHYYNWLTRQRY-NH2 [Compound 92]	3.16

Origin of measurements: patent US20240247080A1
